Molecular target: plasma kallikrein (Homo sapiens)
Construct: from tissue
Experiment: Neat human plasma assay, FXIIa contact pathway-activated, PFR-AMC substrate
Format: biochemical
Conditions: citrated human plasma 78% final, 10 nM human FXIIa, 100 μM PFR-AMC; read-out: Human Plasma Assay: IC90
READOUT: IC90

Qu. Endpoint output: IC90 of Cc1ccnc([C@H]2C[C@@H]2C(=O)Nc2cc(NCc3cn4cc(C5CC5)cc(N5CC(=O)N(C)C5=O)c4n3)nc(C3CC3)n2)n1 [Example 410] . Value?
Ans. < 0.4 µM

Qu. Endpoint output: IC90 of Cc1ccnc([C@H]2C[C@@H]2C(=O)Nc2cc(NCc3nc4c(N5CC(=O)N(C)C5=O)cc(C5CC5)cn4c3F)ncn2)n1 [Example 379] . Value?
Ans. 0.4 to 1.5 µM

Qu. Endpoint output: IC90 of CC(=O)Nc1cc(C2CC2)cn2cc(CNc3ccnc(NC(=O)[C@H]4C[C@@H]4c4cccc(Cl)c4)c3)nc12 [Example 142] . Value?
Ans. 1.5 to 10 µM

Qu. Endpoint output: IC90 of Cc1ccnc([C@H]2C[C@@H]2C(=O)Nc2cc(NCc3cn4cc(C5CC5)cc(N5CC(=O)N(C)C5=O)c4n3)c(C(F)(F)F)nn2)n1 [Example I-640] . Value?
Ans. < 0.4 µM

Qu. Endpoint output: IC90 of Cc1ccnc([C@H]2C[C@@H]2C(=O)Nc2nccc(N3C[C@@H](O)C[C@@H]3c3cn4cc(C5CC5)cc(N5CC(=O)N(C)C5=O)c4n3)n2)n1 (relative stereo) [Example 541] . Value?
Ans. 0.4 to 1.5 µM

Qu. Endpoint output: IC90 of CN1C(=O)CN(c2cc(C3CC3)cn3cc(CNc4ccnc(NC(=O)[C@H]5C[C@@H]5c5cccc(Cl)c5)c4)nc23)C1=O [Example I-209] . Value?
Ans. 0.4 to 1.5 µM

----------
Would you kindly list IC90 for each of these compounds?
Target: plasma kallikrein (Homo sapiens)
Construct: from tissue
Assay: Neat human plasma assay, FXIIa contact pathway-activated, PFR-AMC substrate
Assay type: biochemical
Conditions: citrated human plasma 78% final, 10 nM human FXIIa, 100 μM PFR-AMC; read-out: Human Plasma Assay: IC90

Qu. Form field - read-out: IC90; system: plasma kallikrein (Homo sapiens); submitted item: CC[C@@H](Nc1cc(NC(=O)[C@H]2C[C@@H]2c2nccc(C)n2)nc(C)n1)c1cn2cc(C3CC3)cc(N3CC(=O)N(C)C3=O)c2n1 [Example 358]
Ans. 400 to 1500 nM

Qu. Form field - read-out: IC90; system: plasma kallikrein (Homo sapiens); submitted item: CC(C)(O)c1cc(C2CC2)cn2cc(CNc3ccnc(NC(=O)[C@H]4C[C@@H]4c4cccc(Cl)c4)c3)nc12 [Example 122]
Ans. 10000 to 48000 nM

Qu. Form field - read-out: IC90; system: plasma kallikrein (Homo sapiens); submitted item: Cc1ccnc([C@H]2C[C@@H]2C(=O)Nc2cc(OCc3cn4cc(C5CC5)cc(N5CC(=O)N(C)C5=O)c4n3)cnn2)n1 [Example 558]
Ans. < 400 nM

Qu. Form field - read-out: IC90; system: plasma kallikrein (Homo sapiens); submitted item: CC(O)c1cc(C2CC2)cn2cc(CNc3ccnc(NC(=O)[C@H]4C[C@@H]4c4cccc(Cl)c4)c3)nc12 (stereo partly shown) [Example I-236]
Ans. > 48000 nM

Qu. Form field - read-out: IC90; system: plasma kallikrein (Homo sapiens); submitted item: Cc1ccnc([C@H]2C[C@@H]2C(=O)Nc2cc(OCc3cn4cc(C5CC5)cc(N5CC(=O)NC5=O)c4n3)ncn2)n1 [Example 32]
Ans. < 400 nM

Qu. Form field - read-out: IC90; system: plasma kallikrein (Homo sapiens); submitted item: CN1CCN(C(=O)c2cc(C3CC3)cn3cc(CNc4cc(NC(=O)[C@H]5C[C@@H]5c5cccc(Cl)c5)ncn4)nc23)CC1 [Example 301]
Ans. 1500 to 10000 nM

Qu. Form field - read-out: IC90; system: plasma kallikrein (Homo sapiens); submitted item: O=C(Nc1cc(NCc2cn3cc(C4CC4)cc(N4CCNC(C(F)(F)F)C4)c3n2)ccn1)[C@H]1C[C@@H]1c1cccc(Cl)c1 (stereo partly shown) [Example I-21]
Ans. 1500 to 10000 nM

Qu. Form field - read-out: IC90; system: plasma kallikrein (Homo sapiens); submitted item: O=C(Nc1cc(NCc2cn3cc(C4CC4)cc(CCCO)c3n2)ccn1)[C@H]1C[C@@H]1c1cccc(Cl)c1 [Example 291]
Ans. 1500 to 10000 nM

Qu. Form field - read-out: IC90; system: plasma kallikrein (Homo sapiens); submitted item: O=C(Nc1cc(NCc2cn3cc(C4CC4)cc(C(O)C4CNC4)c3n2)ccn1)[C@H]1C[C@@H]1c1cccc(Cl)c1 (stereo partly shown) [Example 135]
Ans. < 400 nM

Qu. Form field - read-out: IC90; system: plasma kallikrein (Homo sapiens); submitted item: N#CCCc1cc(C2CC2)cn2cc(CNc3ccnc(NC(=O)[C@H]4C[C@@H]4c4cccc(Cl)c4)c3)nc12 (racemic) [Example 87]
Ans. 10000 to 48000 nM

Qu. Form field - read-out: IC90; system: plasma kallikrein (Homo sapiens); submitted item: Cc1ccnc([C@H]2C[C@@H]2C(=O)Nc2nccc(NCc3cn4cc(C5CC5)cc(N5CC(=O)N(C)C5=O)c4n3)n2)n1 (racemic) [Example 520]
Ans. < 400 nM

Qu. Form field - read-out: IC90; system: plasma kallikrein (Homo sapiens); submitted item: O=C(Nc1cc(NCc2cn3cc(C4CC4)cc(C(=O)N4CCOCC4)c3n2)ncn1)[C@H]1C[C@@H]1c1cccc(Cl)c1 [Example 300]
Ans. 1500 to 10000 nM

Qu. Form field - read-out: IC90; system: plasma kallikrein (Homo sapiens); submitted item: O=C(Nc1cc(NCc2cn3cc(C4CC4)cc(N4CC(=O)N(C5CC5)C4=O)c3n2)ccn1)[C@H]1C[C@@H]1c1cccc(Cl)c1 [Example 513]
Ans. 1500 to 10000 nM

----------
Would you kindly list EC50 for each of these compounds?
Molecular target: human activated kallikrein enzyme (Homo sapiens, UniProt P03952)
Sequence (P03952 391-638 limits assumed): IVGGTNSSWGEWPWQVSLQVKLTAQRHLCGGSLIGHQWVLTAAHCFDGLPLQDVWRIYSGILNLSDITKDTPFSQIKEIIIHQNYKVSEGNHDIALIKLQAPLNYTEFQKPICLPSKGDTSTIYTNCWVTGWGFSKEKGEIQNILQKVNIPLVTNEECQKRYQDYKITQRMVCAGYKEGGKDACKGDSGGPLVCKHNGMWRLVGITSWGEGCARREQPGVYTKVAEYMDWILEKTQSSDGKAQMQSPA
Sequence (P03952 20-390 partner limits assumed): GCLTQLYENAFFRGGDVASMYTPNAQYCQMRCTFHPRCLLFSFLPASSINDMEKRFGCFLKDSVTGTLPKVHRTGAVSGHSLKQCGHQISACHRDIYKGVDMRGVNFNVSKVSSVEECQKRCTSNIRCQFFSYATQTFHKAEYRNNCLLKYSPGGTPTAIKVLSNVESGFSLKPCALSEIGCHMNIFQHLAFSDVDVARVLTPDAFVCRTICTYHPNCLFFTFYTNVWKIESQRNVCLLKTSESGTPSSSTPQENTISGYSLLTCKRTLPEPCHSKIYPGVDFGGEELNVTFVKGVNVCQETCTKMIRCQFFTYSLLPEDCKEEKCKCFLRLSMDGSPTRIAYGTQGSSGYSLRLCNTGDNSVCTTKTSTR
Assay: Plasma kallikrein inhibition, fluorogenic PFR-AMC substrate, 500 pM activated kallikrein format
Type: biochemical
Settings: 500 pM activated kallikrein, 300 uM PFR-AMC, 30 min preincubation, 10 min reaction; read-out: Primary Dose Response Assay: Average EC50
Description: Compounds were evaluated for inhibition of the human activated kallikrein enzyme in two formats of an assay employing a fluorogenic peptide substrate. […] After initiation with substrate, reactions were incubated for 10 min at room temperature and fluorescence emission at 460 nm from 380 nm excitation measured with a microplate reader. […]

Qu. Form field - read-out: EC50; system: human activated kallikrein enzyme (Homo sapiens, UniProt P03952); submitted item: CN1C(=O)CN(c2cc(C3CC3)cn3cc(CN(C)c4cnnc(NC(=O)[C@H]5C[C@@H]5c5cccc(Cl)c5)c4)nc23)C1=O [Example I-641]
Ans. < 1 nM

Qu. Form field - read-out: EC50; system: human activated kallikrein enzyme (Homo sapiens, UniProt P03952); submitted item: CN1CCN(c2cc(C3CC3)cn3cc(CNc4cc(NC(=O)[C@H]5C[C@@H]5c5cccc(Cl)c5)ncn4)nc23)C1=O [Example I-157]
Ans. < 1 nM

Qu. Form field - read-out: EC50; system: human activated kallikrein enzyme (Homo sapiens, UniProt P03952); submitted item: CN(C)C1CCN(c2cc(C3CC3)cn3cc(CNc4ccnc(NC(=O)[C@H]5C[C@@H]5c5cccc(Cl)c5)c4)nc23)C1 (stereo partly shown) [Example I-25]
Ans. < 1 nM

Qu. Form field - read-out: EC50; system: human activated kallikrein enzyme (Homo sapiens, UniProt P03952); submitted item: N#Cc1ccc(Cl)cc1[C@@H]1C[C@H]1C(=O)Nc1cc(NCc2cn3cc(C4CC4)ccc3n2)ccn1 (single isomer, unassigned) [Example 83]
Ans. 10 to 100 nM

Qu. Form field - read-out: EC50; system: human activated kallikrein enzyme (Homo sapiens, UniProt P03952); submitted item: O=C(Nc1cc(NCc2cn3cc(C4CC4)ccc3n2)cc(CCN2CCOCC2)n1)[C@H]1C[C@@H]1c1cccc(Cl)c1 [Example 341]
Ans. 1 to 10 nM

Qu. Form field - read-out: EC50; system: human activated kallikrein enzyme (Homo sapiens, UniProt P03952); submitted item: COc1cc(N2CC(=O)N(C)C2=O)c2nc([C@@H](C)Nc3cc(NC(=O)[C@H]4C[C@@H]4c4nccc(C)n4)ncn3)cn2c1 [Example 415]
Ans. < 1 nM

Qu. Form field - read-out: EC50; system: human activated kallikrein enzyme (Homo sapiens, UniProt P03952); submitted item: O=C(Nc1cc(NCc2cn3cc(Cl)ccc3n2)ccn1)[C@H]1C[C@@H]1c1cccc(Cl)c1 [Example I-253]
Ans. 1 to 10 nM

Qu. Form field - read-out: EC50; system: human activated kallikrein enzyme (Homo sapiens, UniProt P03952); submitted item: O=C(Nc1cc(NCc2cn3cc(C4CC4)ccc3n2)ccn1)[C@H]1C[C@@H]1c1cc(Cl)ccc1[N+](=O)[O-] (racemic) [Example I-223]
Ans. < 1 nM

Qu. Form field - read-out: EC50; system: human activated kallikrein enzyme (Homo sapiens, UniProt P03952); submitted item: N#Cc1ccc(Cl)cc1C1CC1C(=O)Nc1cc(NCc2cn3cc(C4CC4)cc(N4CCCC4=O)c3n2)ncn1 (stereo not shown) [Example 335]
Ans. 100 to 1000 nM

Qu. Form field - read-out: EC50; system: human activated kallikrein enzyme (Homo sapiens, UniProt P03952); submitted item: Cc1ccnc([C@H]2C[C@@H]2C(=O)Nc2cc(N(C)Cc3cn4cc(C5CC5)cc(N5CC(=O)N(CC(C)(C)O)C5=O)c4n3)nc(C)n2)n1 [Example 359]
Ans. < 1 nM

Qu. Form field - read-out: EC50; system: human activated kallikrein enzyme (Homo sapiens, UniProt P03952); submitted item: Cc1ccnc([C@H]2C[C@@H]2C(=O)Nc2cn3c(Cc4cn5cc(C6CC6)cc(N6CC(=O)N(C)C6=O)c5n4)nnc3cn2)n1 [Example 630]
Ans. 1 to 10 nM

Qu. Form field - read-out: EC50; system: human activated kallikrein enzyme (Homo sapiens, UniProt P03952); submitted item: O=C(Nc1cc(NCc2cn3cc(C4CC4)cc(N4CCN(CCO)CC4)c3n2)ccn1)[C@H]1C[C@@H]1c1cccc(Cl)c1 [Example 603]
Ans. < 1 nM

Qu. Form field - read-out: EC50; system: human activated kallikrein enzyme (Homo sapiens, UniProt P03952); submitted item: C#Cc1cccc([C@H]2C[C@@H]2C(=O)Nc2cc(N3C[C@@H](O)C[C@@H]3c3cn4cc(C5CC5)ccc4n3)ncn2)c1 [Example 486]
Ans. 1 to 10 nM

Qu. Form field - read-out: EC50; system: human activated kallikrein enzyme (Homo sapiens, UniProt P03952); submitted item: CN1CCN(c2cc(C3CC3)cn3cc(CNc4cc(NC(=O)[C@H]5C[C@@H]5c5cccc(Cl)c5)nc(O)n4)nc23)CC1 [Example 285]
Ans. < 1 nM

Qu. Form field - read-out: EC50; system: human activated kallikrein enzyme (Homo sapiens, UniProt P03952); submitted item: Cc1ccnc([C@H]2C[C@@H]2C(=O)Nc2cc(NCc3cn4cc(Cl)cc(N5CC(=O)N(C)C5=O)c4n3)ncn2)n1 [Example 380]
Ans. < 1 nM

Qu. Form field - read-out: EC50; system: human activated kallikrein enzyme (Homo sapiens, UniProt P03952); submitted item: COC(=O)C1CN(c2cc(C3CC3)cn3cc(CNc4cc(NC(=O)[C@H]5C[C@@H]5c5cccc(Cl)c5)ncn4)nc23)CCN1C (stereo partly shown) [Example I-8]
Ans. 1 to 10 nM

Qu. Form field - read-out: EC50; system: human activated kallikrein enzyme (Homo sapiens, UniProt P03952); submitted item: O=C(Nc1cc(NCc2cn3cc(C4CC4)cc(N4CCNCC4=O)c3n2)ncn1)[C@H]1C[C@@H]1c1cccc(Cl)c1 [Example I-647]
Ans. < 1 nM

Qu. Form field - read-out: EC50; system: human activated kallikrein enzyme (Homo sapiens, UniProt P03952); submitted item: O=C(Nc1cc(NCc2cn3cc(C4CC4)cc(N4C[C@H](O)CC4=O)c3n2)ncn1)[C@H]1C[C@@H]1c1cccc(Cl)c1 (relative stereo) [Example 65]
Ans. 1 to 10 nM

Qu. Form field - read-out: EC50; system: human activated kallikrein enzyme (Homo sapiens, UniProt P03952); submitted item: O=C(Nc1cc(NCc2cn3cc(C4CC4)ccc3n2)ncn1)[C@H]1C[C@@H]1c1cccc(Cl)c1F (racemic) [Example 43]
Ans. 10 to 100 nM

Qu. Form field - read-out: EC50; system: human activated kallikrein enzyme (Homo sapiens, UniProt P03952); submitted item: Cc1ccnc([C@@H]2[C@@H](C(=O)Nc3cc(NCc4cn5cc(C6CC6)cc(N6CC(=O)N(C)C6=O)c5n4)ncn3)C2(F)F)n1 (racemic) [Example 494]
Ans. < 1 nM

Qu. Form field - read-out: EC50; system: human activated kallikrein enzyme (Homo sapiens, UniProt P03952); submitted item: COc1ccnc([C@H]2C[C@@H]2C(=O)Nc2cc(N[C@H](C)c3cn4cc(C5CC5)cc(N5CC(=O)N(C)C5=O)c4n3)ncn2)n1 (relative stereo) [Example 529]
Ans. < 1 nM

Qu. Form field - read-out: EC50; system: human activated kallikrein enzyme (Homo sapiens, UniProt P03952); submitted item: COc1cc([C@H]2C[C@@H]2C(=O)Nc2cc(NCc3cn4cc(C5CC5)ccc4n3)ccn2)cc(NC(=O)OC(C)(C)C)n1 (racemic) [Example I-216]
Ans. > 6000 nM

Qu. Form field - read-out: EC50; system: human activated kallikrein enzyme (Homo sapiens, UniProt P03952); submitted item: Cc1cc(N2CC(=O)N(C)C2=O)c2nc(C(C)Oc3cnnc(NC(=O)[C@H]4C[C@@H]4c4nccc(C)n4)c3)cn2c1 (stereo partly shown) [Example 36]
Ans. < 1 nM

Qu. Form field - read-out: EC50; system: human activated kallikrein enzyme (Homo sapiens, UniProt P03952); submitted item: Cc1ccnc([C@H]2C[C@@H]2C(=O)Nc2cc(NCc3cn4cc(C5CC5)cc(N5CC(=O)N(C)C5=O)c4n3)nc(C(F)(F)F)n2)n1 (racemic) [Example 501]
Ans. < 1 nM

Qu. Form field - read-out: EC50; system: human activated kallikrein enzyme (Homo sapiens, UniProt P03952); submitted item: Cc1cc(N2CC(=O)N(C)C2=O)c2nc([C@@H](C)Nc3cc(NC(=O)[C@H]4C[C@@H]4c4nccc(C)n4)ncn3)cn2c1 [Example 423]
Ans. < 1 nM
